- Assay system: androgen receptors (Rattus norvegicus)
- Construct: from tissue; host or cells: rat ventral prostate cytosol, inferred from the cited method
- Sequence (P15207 whole entry S389L): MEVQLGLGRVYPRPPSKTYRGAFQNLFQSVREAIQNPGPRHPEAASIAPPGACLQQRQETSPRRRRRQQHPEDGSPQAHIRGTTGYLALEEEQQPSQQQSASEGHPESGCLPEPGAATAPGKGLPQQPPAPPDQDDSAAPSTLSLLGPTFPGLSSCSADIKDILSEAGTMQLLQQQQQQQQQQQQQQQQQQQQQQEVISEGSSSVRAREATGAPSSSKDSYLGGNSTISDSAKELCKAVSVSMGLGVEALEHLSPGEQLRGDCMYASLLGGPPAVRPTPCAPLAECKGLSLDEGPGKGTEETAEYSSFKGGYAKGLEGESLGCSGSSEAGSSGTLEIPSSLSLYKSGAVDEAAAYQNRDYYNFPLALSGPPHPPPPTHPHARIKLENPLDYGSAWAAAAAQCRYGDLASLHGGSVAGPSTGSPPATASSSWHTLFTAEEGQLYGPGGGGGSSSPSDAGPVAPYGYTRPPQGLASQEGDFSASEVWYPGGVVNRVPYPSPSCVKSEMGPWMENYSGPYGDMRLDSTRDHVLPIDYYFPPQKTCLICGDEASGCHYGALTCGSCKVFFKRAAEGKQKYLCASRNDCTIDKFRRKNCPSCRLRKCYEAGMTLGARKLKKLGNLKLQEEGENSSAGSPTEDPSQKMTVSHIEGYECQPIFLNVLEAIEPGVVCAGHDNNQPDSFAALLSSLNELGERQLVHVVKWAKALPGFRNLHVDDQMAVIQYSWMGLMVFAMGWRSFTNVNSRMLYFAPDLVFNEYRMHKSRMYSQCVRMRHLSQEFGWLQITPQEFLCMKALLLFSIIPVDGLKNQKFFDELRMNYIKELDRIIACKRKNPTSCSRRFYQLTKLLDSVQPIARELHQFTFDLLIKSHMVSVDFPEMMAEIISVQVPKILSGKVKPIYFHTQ
- Experiment description: IC50 of the compounds for their effect on the androgen receptors
- Assay type: binding
- Details: method of Schilling and Liao; concentration which decreases by 50% the attachment of a molecule to its receptor; read-out: IC50 Androgen receptors
- Experimental: The IC50 corresponds to the concentration which decreases by 50% either an induced pharmacological mechanism, such as muscular contraction,or the attachment of a molecule to its membrane receptor. In order to determine the IC50 of the compounds for their effect on the androgen receptors, they were tested according to the method of Schilling and Liao ("The Prostate", 1984, 5, 581-588). The values are given in μM
Measurement kind: IC50

Molecule	IC50
CC(O)(C(=O)Nc1ccc(Cl)c(Cl)c1)C(F)(F)F (stereo not drawn) [C]	1 µM

Give IC50 for each of the items listed below.
1. CC(O)(C(=O)Nc1ccc([N+](=O)[O-])c(C(F)(F)F)c1)C(F)(F)F (stereo not drawn) [F, reference compound]
2. CC(O)(C(=O)Nc1ccc(C#N)cc1)C(F)(F)F (stereo not drawn) [G, reference compound]

1. > 10 µM
2. > 10 µM
